Give self-splicing fitness (ln) for every item shown.
- method_description: self-splicing fitness, log relative to wild type (ln ratio); higher = more splicing; Tetrahymena group I intron in knt gene, E. coli kanamycin selection, DiMSum; sequences stand for … in CUCUCU…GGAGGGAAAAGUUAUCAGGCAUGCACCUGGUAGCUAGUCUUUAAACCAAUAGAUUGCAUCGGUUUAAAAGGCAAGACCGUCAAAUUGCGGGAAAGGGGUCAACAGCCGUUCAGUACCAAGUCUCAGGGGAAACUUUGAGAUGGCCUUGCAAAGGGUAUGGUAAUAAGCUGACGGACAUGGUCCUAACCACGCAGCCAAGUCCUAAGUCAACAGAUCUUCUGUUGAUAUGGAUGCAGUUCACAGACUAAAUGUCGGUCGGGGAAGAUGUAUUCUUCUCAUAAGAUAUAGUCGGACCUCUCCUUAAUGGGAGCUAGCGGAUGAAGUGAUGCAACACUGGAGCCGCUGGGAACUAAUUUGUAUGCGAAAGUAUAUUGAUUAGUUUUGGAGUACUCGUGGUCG;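 note: selection with 25 µg/mL kanamycin versus none on LB agar overnight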
- condition: 30 °C
Numbers only.

Field: example entries. Status: answers known.
>>> df
          residue_codes  quantitative_result
0  GAGAAGCAAUAUUACGGGUA                -2.02
1  GCCUAGCAAUAUUACGAAUA                -2.12
2  AUGUAGCAAUAUUACGGCCG                -2.32
3  AGCAAGCAAUAUUACGGAAG                -3.35
4  GCACAGCAAUAUUACGGGCG                 -1.4

// input: 6 sequences below; output: self-splicing fitness (ln) for each
1. AGGGAGCAAUAUUACGGUGU
2. GCACAGCAAUAUUACGGAGU
3. ACCUAGCAAUAUUACGUACC
4. CGCGAGCAAUAUUACGACGG
5. CCACAGCAAUAUUACGAGGU
6. CCCUAGCAAUAUUACGUAAU

1: -4.33; 2: -1.69; 3: -1.59; 4: -0.512; 5: -4.41; 6: -3.5

====

- method_description: self-splicing fitness, log relative to wild type (ln ratio); higher = more splicing; Tetrahymena group I intron in knt gene, E. coli kanamycin selection, DiMSum; sequences stand for … in CUCUCU…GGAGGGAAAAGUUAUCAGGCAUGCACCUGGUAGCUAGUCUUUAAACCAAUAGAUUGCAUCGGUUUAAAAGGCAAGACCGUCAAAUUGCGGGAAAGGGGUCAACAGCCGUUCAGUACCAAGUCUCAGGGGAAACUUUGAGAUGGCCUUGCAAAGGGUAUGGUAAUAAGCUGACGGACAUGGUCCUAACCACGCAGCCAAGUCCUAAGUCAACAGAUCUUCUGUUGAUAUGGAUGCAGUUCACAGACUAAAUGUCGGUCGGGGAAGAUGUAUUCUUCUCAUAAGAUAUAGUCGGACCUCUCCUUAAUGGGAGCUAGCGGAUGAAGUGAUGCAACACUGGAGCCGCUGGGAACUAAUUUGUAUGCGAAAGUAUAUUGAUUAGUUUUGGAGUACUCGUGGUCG
- condition: 37 °C
Give measured self-splicing fitness (ln) for each item. Keep answers brief.

In [3]: df
Out[3]:
          residue_codes  result
0  CGCAAGCAAUAUUACGGAAC   -2.87
1  CGCAAGCAAUAUUACGUCUC   -1.49
2  CCGAAGCAAUAUUACGUGGU   -2.24
3  UAUGAGCAAUAUUACGUGCA   -2.32
4  CGUUAGCAAUAUUACGACAA   -1.15
5  AGAUAGCAAUAUUACGGCCU   0.606

For every listed record, write down its self-splicing fitness (ln).
1. UGGUAGCAAUAUUACGAUGU
2. GAGGAGCAAUAUUACGUUCA
3. ACCAAGCAAUAUUACGCGUU
4. UUUAAGCAAUAUUACGCAUG
5. ACUCAGCAAUAUUACGGGAA
6. GACCAGCAAUAUUACGUAAA

[-2.12, -0.275, -0.292, -0.408, -0.568, -0.108]
